# Experiment Description: Single dose PK profile (plasma and tumor) in Colon26 tumor bearing mice
# Type: in vivo
# Condition: female, mouse, po, 25 mg/kg; tumor; 25 mpk p.o.
Recorded Metric: bioavailability (%)
# output: bare number, implied unit %

> print(dat)
                                   molecule  measurement
1  CNS(=O)(=O)Nc1cccc(Cc2c(CN(C)C)c3ccc(OC(=O)N(C)C)cc3oc2=O)c1F [Compound 9]         59.1

Attention now turns to another entry.
# input Supply reported bioavailability belonging to this molecule: CNS(=O)(=O)Nc1cccc(Cc2c(CN3CCC3)c3ccc(OC(=O)N(C)C)cc3oc2=O)c1F [Compound 197]
# output 42

====

# Target Under Test: CYP450 2C19 (Homo sapiens, UniProt P33261)
# Sequence (P33261 whole entry): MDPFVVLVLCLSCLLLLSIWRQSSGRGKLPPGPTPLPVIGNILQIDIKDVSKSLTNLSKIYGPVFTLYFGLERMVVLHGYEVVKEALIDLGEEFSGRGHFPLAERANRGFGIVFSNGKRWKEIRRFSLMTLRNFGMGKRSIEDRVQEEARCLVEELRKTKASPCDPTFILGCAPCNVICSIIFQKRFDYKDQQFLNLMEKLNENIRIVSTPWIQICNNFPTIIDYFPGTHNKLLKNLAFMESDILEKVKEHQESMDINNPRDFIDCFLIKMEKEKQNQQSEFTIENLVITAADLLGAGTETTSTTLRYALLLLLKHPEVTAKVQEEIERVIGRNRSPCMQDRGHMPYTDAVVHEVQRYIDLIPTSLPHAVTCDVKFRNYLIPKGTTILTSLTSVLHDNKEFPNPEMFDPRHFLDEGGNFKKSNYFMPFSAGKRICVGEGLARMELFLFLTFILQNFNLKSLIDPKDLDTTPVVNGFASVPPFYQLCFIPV
# Experiment Description: CYP450 panel, 2C19
# Condition: 10 μM; substrate mephenytoin
Recorded Metric: 2C19*
Form rule: numeric answer, no unit written next to it.

> print(dat)
                                   compound  measurement
1  CNS(=O)(=O)Nc1nccc(Cc2c(C)c3ccc(Oc4ncccn4)cc3oc2=O)c1F [Reference 2, reference compound]         −0.9
2  CNS(=O)(=O)Nc1cccc(Cc2c(CN(C)C)c3ccc(OC(=O)N(C)C)cc3oc2=O)c1F [Compound 9]          8.2
3  CNS(=O)(=O)Nc1cccc(Cc2c(CNCC#N)c3ccc(OC(=O)N(C)C)cc3oc2=O)c1F [Compound 13]          6.2
4  C#CCNCc1c(Cc2cccc(NS(=O)(=O)NC)c2F)c(=O)oc2cc(OC(=O)N(C)C)ccc12 [Compound 14]          4.0
5  CNS(=O)(=O)Nc1cccc(Cc2c(C)c3ccc(OC(=O)N(C)C)cc3oc2=O)c1F [Compound 7]         11.6

# input Supply reported 2C19* belonging to this compound: Cn1cnc2c(F)c(Nc3ccc(Br)cc3Cl)c(C(=O)NOCCO)cc21 [Reference 1, Selumetinib, reference compound]
# output 13.9

# input Supply reported 2C19* belonging to this compound: CNS(=O)(=O)Nc1cccc(Cc2c(CN3CCNCC3)c3ccc(OC(=O)N(C)C)cc3oc2=O)c1F [Compound 10]
# output 4.8

====

# Experiment Description: Plasma stability, human
# Type: in vitro ADME
# Condition: 2 μM
Recorded Human (% Reamining @2 hour), one value per entry.
# output: bare number, implied unit %

> print(dat)
                                     smiles              recorded.metric  measurement
1  CNS(=O)(=O)Nc1cccc(Cc2c(CNC3CC3)c3ccc(OC(=O)N(C)C)cc3oc2=O)c1F  Human (% Reamining @2 hour)         93.7
2  CNS(=O)(=O)Nc1cccc(Cc2c(CN3CCNCC3)c3ccc(OC(=O)N(C)C)cc3oc2=O)c1F  Human (% Reamining @2 hour)         92.1
3  CNS(=O)(=O)Nc1cccc(Cc2c(CN3CCN(C)CC3)c3ccc(OC(=O)N(C)C)cc3oc2=O)c1F  Human (% Reamining @2 hour)         98.1
4  CNS(=O)(=O)Nc1cccc(Cc2c(CN3CCN(Cc4ccccc4)CC3)c3ccc(OC(=O)N(C)C)cc3oc2=O)c1F  Human (% Reamining @2 hour)         99.0

Attention now turns to another entry.
# input Supply reported Human (% Reamining @2 hour) belonging to this compound: CNS(=O)(=O)Nc1cccc(Cc2c(C)c3ccc(OC(=O)N(C)C)cc3oc2=O)c1F
# output 88.1

====

# Experiment Description: Single dose PK profile (plasma and tumor) in Colon26 tumor bearing mice
# Type: in vivo
# Condition: female, mouse, po, 100 mg/kg; tumor; 100 mpk p.o.
Recorded Cmax, one value per entry.
Answer by giving the amount and then stating its unit.

> print(dat)
                                     smiles  measurement
1  CNS(=O)(=O)Nc1cccc(Cc2c(CN(C)C)c3ccc(OC(=O)N(C)C)cc3oc2=O)c1F  30300 ng/mL

Attention now turns to another entry.
# input Supply reported Cmax belonging to this molecule: CNS(=O)(=O)Nc1cccc(Cc2c(CN3CCC3)c3ccc(OC(=O)N(C)C)cc3oc2=O)c1F
# output 12600 ng/mL

====

# Experiment Description: Plasma stability, CD-1 mouse
# Type: in vitro ADME
# Condition: 2 μM
Recorded Metric: CD-1 Mouse (% Reamining @2 hour) (%)
# output: bare number, implied unit %

Answered cases to consult:
> print(dat)
                                   compound  measurement
1  CNS(=O)(=O)Nc1nccc(Cc2c(C)c3ccc(Oc4ncccn4)cc3oc2=O)c1F [Reference 2, reference compound]         92.9
2  CNS(=O)(=O)Nc1cccc(Cc2c(CNCC#N)c3ccc(OC(=O)N(C)C)cc3oc2=O)c1F         87.1
3  C#CCNCc1c(Cc2cccc(NS(=O)(=O)NC)c2F)c(=O)oc2cc(OC(=O)N(C)C)ccc12         95.0
4  Cn1cnc2c(F)c(Nc3ccc(Br)cc3Cl)c(C(=O)NOCCO)cc21 [Reference 1, Selumetinib, reference compound]        104.8
5  CNS(=O)(=O)Nc1cccc(Cc2c(CN3CCNCC3)c3ccc(OC(=O)N(C)C)cc3oc2=O)c1F         97.7
6  CNS(=O)(=O)Nc1cccc(Cc2c(CN3CCN(Cc4ccccc4)CC3)c3ccc(OC(=O)N(C)C)cc3oc2=O)c1F         92.7

Attention now turns to another entry.
# input Supply reported CD-1 Mouse (% Reamining @2 hour) belonging to this compound: CNS(=O)(=O)Nc1cccc(Cc2c(CN(C)C)c3ccc(OC(=O)N(C)C)cc3oc2=O)c1F
# output 90.6

====

# Target Under Test: hERG Channel (Homo sapiens)
# Sequence (Q12809 whole entry): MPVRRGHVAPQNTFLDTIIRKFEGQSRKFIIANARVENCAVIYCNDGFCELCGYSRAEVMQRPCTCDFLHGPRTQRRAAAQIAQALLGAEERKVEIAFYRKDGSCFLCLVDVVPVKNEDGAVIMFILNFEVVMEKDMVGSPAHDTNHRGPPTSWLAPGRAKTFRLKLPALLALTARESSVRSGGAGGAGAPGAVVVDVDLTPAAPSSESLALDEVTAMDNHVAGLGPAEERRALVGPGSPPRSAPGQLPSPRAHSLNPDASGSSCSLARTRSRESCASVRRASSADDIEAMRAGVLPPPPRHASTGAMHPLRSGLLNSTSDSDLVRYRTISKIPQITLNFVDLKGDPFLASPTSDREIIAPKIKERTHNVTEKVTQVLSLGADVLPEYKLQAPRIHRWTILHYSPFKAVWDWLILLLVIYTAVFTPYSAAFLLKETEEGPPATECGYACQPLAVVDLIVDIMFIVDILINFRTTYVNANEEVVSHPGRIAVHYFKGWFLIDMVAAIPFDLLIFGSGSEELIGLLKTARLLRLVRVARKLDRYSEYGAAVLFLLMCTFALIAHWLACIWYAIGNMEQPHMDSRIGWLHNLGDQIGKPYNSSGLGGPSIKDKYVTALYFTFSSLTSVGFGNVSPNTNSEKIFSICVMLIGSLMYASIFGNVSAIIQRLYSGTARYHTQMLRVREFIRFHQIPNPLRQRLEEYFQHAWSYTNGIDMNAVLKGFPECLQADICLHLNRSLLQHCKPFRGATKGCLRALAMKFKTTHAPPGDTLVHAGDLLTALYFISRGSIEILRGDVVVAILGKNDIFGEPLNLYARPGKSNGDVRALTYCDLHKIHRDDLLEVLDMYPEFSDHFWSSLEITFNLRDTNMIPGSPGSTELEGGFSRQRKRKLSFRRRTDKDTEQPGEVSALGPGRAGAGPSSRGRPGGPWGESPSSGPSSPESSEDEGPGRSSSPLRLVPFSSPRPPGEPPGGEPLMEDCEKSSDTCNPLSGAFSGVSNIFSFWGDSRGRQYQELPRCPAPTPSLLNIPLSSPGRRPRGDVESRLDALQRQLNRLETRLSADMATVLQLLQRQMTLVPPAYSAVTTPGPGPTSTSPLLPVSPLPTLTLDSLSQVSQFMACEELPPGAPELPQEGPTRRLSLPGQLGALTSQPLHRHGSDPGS
# Experiment Description: cell-based
Recorded Metric: pIC50
// pIC50 is dimensionless: -log10 of concentration (M)

Answered cases to consult:
> print(dat)
                                     smiles            target.under.test  measurement
1  C#CCNCc1c(Cc2cccc(NS(=O)(=O)NC)c2F)c(=O)oc2cc(OC(=O)N(C)C)ccc12  hERG Channel (Homo sapiens)         4.71
2  CNS(=O)(=O)Nc1cccc(Cc2c(CNC3CC3)c3ccc(OC(=O)N(C)C)cc3oc2=O)c1F  hERG Channel (Homo sapiens)         5.96

# input Supply reported pIC50 belonging to this compound: CNS(=O)(=O)Nc1cccc(Cc2c(CN3CCN(Cc4ccccc4)CC3)c3ccc(OC(=O)N(C)C)cc3oc2=O)c1F
# output 7.00

# input Supply reported pIC50 belonging to this compound: CNS(=O)(=O)Nc1cccc(Cc2c(CN3CCN(C)CC3)c3ccc(OC(=O)N(C)C)cc3oc2=O)c1F
# output 5.19

====

# Target Under Test: CYP450 2C9 (Homo sapiens, UniProt P11712)
# Sequence (P11712 whole entry): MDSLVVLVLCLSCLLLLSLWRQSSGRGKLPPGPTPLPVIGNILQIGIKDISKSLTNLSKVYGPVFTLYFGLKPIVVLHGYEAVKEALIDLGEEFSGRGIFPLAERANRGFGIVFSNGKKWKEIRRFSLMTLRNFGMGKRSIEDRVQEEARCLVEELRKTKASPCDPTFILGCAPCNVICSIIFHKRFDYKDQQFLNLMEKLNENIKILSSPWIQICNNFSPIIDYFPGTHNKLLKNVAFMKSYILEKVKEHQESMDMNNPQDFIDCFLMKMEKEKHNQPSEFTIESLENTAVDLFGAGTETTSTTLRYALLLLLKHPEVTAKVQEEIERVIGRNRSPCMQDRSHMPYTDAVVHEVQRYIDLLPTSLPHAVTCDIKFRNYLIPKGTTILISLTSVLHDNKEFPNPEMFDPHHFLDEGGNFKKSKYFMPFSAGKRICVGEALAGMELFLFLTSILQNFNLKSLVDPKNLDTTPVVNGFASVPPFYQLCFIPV
# Experiment Description: CYP450 panel, 2C9
# Condition: 10 μM; substrate Diclofenac
Recorded 2C9*, one value per entry.
Form rule: numeric answer, no unit written next to it.

> print(dat)
                                     smiles  measurement
1  C#CCNCc1c(Cc2cccc(NS(=O)(=O)NC)c2F)c(=O)oc2cc(OC(=O)N(C)C)ccc12          8.2
2  CNS(=O)(=O)Nc1cccc(Cc2c(CN3CCN(C)CC3)c3ccc(OC(=O)N(C)C)cc3oc2=O)c1F          3.0

Attention now turns to another entry.
# input Supply reported 2C9* belonging to this molecule: CNS(=O)(=O)Nc1cccc(Cc2c(CN3CCN(Cc4ccccc4)CC3)c3ccc(OC(=O)N(C)C)cc3oc2=O)c1F
# output 42.4

====

# Experiment Description: Single dose PK profile (plasma and tumor) in Colon26 tumor bearing mice
# Type: in vivo
# Condition: female, mouse, po, 100 mg/kg; plasma; 100 mpk p.o.
Recorded Tmax, one value per entry.
# output: bare number, implied unit min

> print(dat)
                                     smiles  recorded.metric  measurement
1  CNS(=O)(=O)Nc1cccc(Cc2c(CN3CCC3)c3ccc(OC(=O)N(C)C)cc3oc2=O)c1F             Tmax          9.6

# input Supply reported Tmax belonging to this compound: CNS(=O)(=O)Nc1cccc(Cc2c(CN(C)C)c3ccc(OC(=O)N(C)C)cc3oc2=O)c1F
# output 30

====

Recorded bioavailability, one value per entry.
# Experiment Description: Single dose PK profile (plasma and tumor) in Colon26 tumor bearing mice
# Assay type: in vivo
# Condition: female, athymic BALB/c nude or BALB/c, mouse, po, 25 mg/kg; plasma; 25 mpk p.o.
# output: bare number, implied unit %

> print(dat)
                                   compound  units.symbol  measurement
1  CNS(=O)(=O)Nc1cccc(Cc2c(CN3CCC3)c3ccc(OC(=O)N(C)C)cc3oc2=O)c1F [Compound 197]             %           47

Attention now turns to another entry.
# input Supply reported bioavailability belonging to this compound: CNS(=O)(=O)Nc1cccc(Cc2c(CN(C)C)c3ccc(OC(=O)N(C)C)cc3oc2=O)c1F [Compound 9]
# output 75.6
